target: GDP-bound KRAS protein (aa 1-169), containing both G12C and C118A amino acid substitutions (Homo sapiens, UniProt P01116, C118A/G12C); assay: Coupled nucleotide exchange assay (SOS-mediated, AlphaScreen); assay type: biochemical; conditions: 5 min compound pre-incubation
Sequence (P01116 1-169 isoform P01116-2 G12C/C118A): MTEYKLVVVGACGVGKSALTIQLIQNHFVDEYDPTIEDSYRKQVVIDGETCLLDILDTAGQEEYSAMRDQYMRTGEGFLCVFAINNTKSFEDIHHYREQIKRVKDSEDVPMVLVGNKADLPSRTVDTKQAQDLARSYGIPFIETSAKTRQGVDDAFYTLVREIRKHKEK
Coupled exchange IC50 (5 min) for assorted molecules

Sample records with Coupled exchange IC50 (5 min):
{"columns": ["Molecule", "Measure", "Result"],
 "data": [
  ["C=CC(=O)N1CCN(c2nc(=O)n(-c3c(C(C)C)ccnc3C)c3nc(-c4ccccc4F)c(Cl)cc23)[C@@H](C)C1 (single isomer, unassigned) [Example 54-18-1]", "Coupled exchange IC50 (5 min)", "0.044 | nda μM"],
  ["C=CC(=O)N1CCN(c2nc(=O)n(-c3ccccc3C(C)C)c3nc(-c4cc(O)cc(Cl)c4Cl)c(Cl)cc23)[C@@H](C)C1 (single isomer, unassigned) [Example 54-91-2]", "Coupled exchange IC50 (5 min)", "0.181 | nda μM"],
  ["C=CC(=O)N1CCN(c2nc(=O)n(-c3c(C)cc(OC)nc3C(C)C)c3nc(-c4ccccc4F)c(Cl)cc23)[C@@H](C)C1 [Example 54-105]", "Coupled exchange IC50 (5 min)", "0.07 | nda μM"]
]}

Lab note: next molecule to report on.
*Q* Returns the measured Coupled exchange IC50 (5 min) for the input molecule. Input: C=CC(=O)N1CCN(c2nc(=O)n(-c3c(CC)cccc3CC)c3nc(N4CCOC[C@@H]4C)c(Cl)cc23)[C@@H](C)C1 [Example 66-30]
*A* 16.05 | nda μM
